# IC50 listing for each entry below
- subjectOfTest: dopamine D-2 receptor (Rattus norvegicus, UniProt P61169)
- Construct: homogenized limbic brain tissue is incubated with; from tissue; host or cells: limbic brain tissue, homogenized
- Sequence (P61169 whole entry): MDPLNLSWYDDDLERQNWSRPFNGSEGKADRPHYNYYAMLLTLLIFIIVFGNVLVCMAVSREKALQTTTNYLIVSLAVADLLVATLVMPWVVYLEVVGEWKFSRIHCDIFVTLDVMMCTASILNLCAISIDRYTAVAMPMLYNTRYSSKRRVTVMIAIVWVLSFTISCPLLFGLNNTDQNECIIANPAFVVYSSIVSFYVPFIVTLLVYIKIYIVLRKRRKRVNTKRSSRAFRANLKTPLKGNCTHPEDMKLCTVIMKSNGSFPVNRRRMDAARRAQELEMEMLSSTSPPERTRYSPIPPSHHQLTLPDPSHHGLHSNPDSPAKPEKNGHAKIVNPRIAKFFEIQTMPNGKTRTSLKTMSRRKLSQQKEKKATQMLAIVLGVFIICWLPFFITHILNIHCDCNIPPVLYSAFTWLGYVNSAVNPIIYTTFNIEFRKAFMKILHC
- testDescription: Affinity for the dopamine D-2 receptor, 3H-spiroperidol binding in homogenized limbic brain tissue
- condition: 3H-spiroperidol, limbic brain tissue; read-out: IC50 D2 Spiper
experimentalEndpoint: IC50 (nM)

[
  {
    "smilesInput": "O=C(c1c[nH]c2cccc(OCCNCc3ccccc3)c12)C(F)(F)F",
    "experimentalEndpoint": "IC50",
    "recordedValue": 286
  },
  {
    "smilesInput": "Clc1ccc(OCCNCc2ccccc2)c2c(Cl)c[nH]c12",
    "experimentalEndpoint": "IC50",
    "recordedValue": 284
  },
  {
    "smilesInput": "Clc1c[nH]c2cccc(OCCNCCCCc3ccccc3)c12",
    "experimentalEndpoint": "IC50",
    "recordedValue": 193
  },
  {
    "smilesInput": "Clc1ccc(OCCNCc2cccs2)c2c(Cl)c[nH]c12",
    "experimentalEndpoint": "IC50",
    "recordedValue": 405
  }
]

---

For reference, IC50 measured on 5-HT1A serotonin receptor (Rattus norvegicus, UniProt P19327):
experimentalEndpoint: IC50 (µM)

[
  {
    "compound": "O=C(c1c[nH]c2cccc(OCCNCc3ccccc3)c12)C(F)(F)F [Example 3a]",
    "experimentalEndpoint": "IC50",
    "recordedValue": 0.06
  },
  {
    "compound": "c1ccc(CCCCNCCOc2cccc3[nH]ccc23)cc1 [Example 1a]",
    "experimentalEndpoint": "IC50",
    "recordedValue": 0.00071
  },
  {
    "compound": "Clc1ccc(OCCNCc2ccccc2)c2cc[nH]c12 [Example 1b]",
    "experimentalEndpoint": "IC50",
    "recordedValue": 0.386
  },
  {
    "compound": "Clc1c[nH]c2cccc(OCCNCCCCc3ccccc3)c12 [Example 2a]",
    "experimentalEndpoint": "IC50",
    "recordedValue": 0.00099
  },
  {
    "compound": "Clc1ccc(OCCNCc2ccccc2)c2c(Cl)c[nH]c12 [Example 1c]",
    "experimentalEndpoint": "IC50",
    "recordedValue": 0.438
  },
  {
    "compound": "c1ccc(CNCCOc2cccc3[nH]ccc23)cc1 [Example 3b]",
    "experimentalEndpoint": "IC50",
    "recordedValue": 0.036
  },
  {
    "compound": "O=C(c1c[nH]c2c(Cl)ccc(OCCNCc3ccccc3)c12)C(F)(F)F [Example 2c]",
    "experimentalEndpoint": "IC50",
    "recordedValue": 0.102
  }
]
